# protocol: qHTS of pediatric cancer cell lines to identify multiple opportunities for drug repurposing: Confirmatory screen for BT-12 cells (AID 1347112);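 also: viability read after 48 h of compound exposure; % is scaled to controls: 0 for no effect and ±100 for the full control effect; nearly all actives have a fitted effect of over 55% in size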
# measurement context: BT-12 rhabdoid tumor cells, viability; series mostly up to 45.9 µM
# Protocol: Drug repurposing or repositioning has been offered as a strategy for drug development in oncology programs. […] [1] Shen, M et al. Quantitative high-throughput phenotypic screening of pediatric cancer cell lines identifies multiple opportunities for drug repurposing. […] Cells were assayed in growth media at a density of 500-1,000 cells/well. […] After a 15 min incubation at room temperature, samples were analyzed for luminescence intensity using a ViewLux High-throughput CCD imager equipped with clear filters.
Records with an inconclusive call do not appear. The source made the active and inactive calls. Calls follow the shape of the dose curve; as a rule, active = well fitted cell-killing curve with a large enough effect; inconclusive = small, poorly fitted or top-dose-only effect; inactive = flat fitted curve, though single readings scatter.
test readout: activity change, negative = cytotoxic

1) Cc1ccc2nc(N)[nH]c(=O)c2c1Sc1ccncc1 : inactive
2) O=c1cc[nH]c(=S)[nH]1 : inactive
3) C[C@@H]1C[C@H]2[C@@H]3C[C@H](F)C4=CC(=O)C=C[C@]4(C)[C@@]3(F)[C@@H](O)C[C@]2(C)[C@@]1(O)C(=O)CO : inactive
4) C[C@](N)(Cc1ccc(O)cc1)C(=O)O : -3.72% [at 5.01 µM] (inactive)

###

# protocol: qHTS profiling for inhibitors of Plasmodium falciparum proliferation (AID 504749);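 also: 0% = DMSO vehicle and full inhibition = artemisinin control; nearly all actives have a fitted effect of over 60% in size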
# measurement context: P. falciparum in erythrocytes, SYBR Green DNA, 72 h; at 28.7 µM (top of the series); parasite line A
Results filed as inconclusive are left out.
test readout: activity, negative = inhibition (%)
Kindly answer with a numeric value in %, unit omitted.

Task: Need activity, negative = inhibition of O=C(O)c1ccccn1 , thanks.
Output: 0.929

Task: And for NCCNCCNCCNCCN ?
Output: 12.5

Task: Proceed to CCOc1nc2cccc(C(=O)O)c2n1Cc1ccc(-c2ccccc2-c2nn[nH]n2)cc1
Output: -6.01

Task: Could you do the same for Cc1c(Cl)cccc1Nc1ccccc1C(=O)O , please?
Output: -2.73

Task: Now consider CN(C)CCN(Cc1ccccc1)c1ccccn1 .
Output: -2.14

Task: One more compound: CC(O)COc1ccccc1 (configuration not stated)
Output: 5.76

Task: Same read-out for CCCCCCCCCCCCOS(=O)(=O)O ?
Output: 2.98

###

# protocol: qHTS assay for measurement of the activity of small molecule inhibitors on Zika virus induced Caspase-3 activity in human astrocytoma cells (AID 1224859);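 also: plate controls were ZIKV-infected untreated cells for no effect and uninfected cells for full effect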
# measurement context: SNB-19 ZIKV-induced caspase-3/7, luminescence, 6 h; series mostly up to 45.7 µM
The source made the active and inactive calls. The call rests on the fitted dose curve; in most records, active means well fitted inhibition curve with a large enough effect; inconclusive means small, poorly fitted or top-dose-only effect; inactive means no such curve, though single readings can be large or run the other way.
test readout: activity change, negative = inhibition

1) O=C(O)c1ccccc1O : inactive
2) Cc1cc2c(cc1S(N)(=O)=O)S(=O)(=O)CCC2 : inactive
3) CCCCOC(=O)c1ccc(O)cc1 : inactive
4) Oc1ccc(C(O)CNCCCCCCNCC(O)c2ccc(O)c(O)c2)cc1O (stereo not given) : inactive
5) O=C(O)[C@H](O)c1ccccc1 : inactive
6) O=C1O[C@H](CO)[C@@H](O)[C@H](O)[C@H]1O : inactive
7) COc1ccc(S(=O)(=O)Nc2nnc(CC(C)C)s2)cc1 : inactive
8) Cc1ncc([N+](=O)[O-])n1CC(O)CCl (stereo not given) : inactive
9) CS(=O)(=O)c1ccc([C@@H](O)[C@@H](CF)NC(=O)C(Cl)Cl)cc1 : inactive
10) O=C1O[C@H]([C@@H](O)CO)C(O)=C1O : inactive

Now, please, on to the next compound.
Task: For the compound C[C@H]1O[C@H](O[C@H]2[C@H](O)[C@@H](O)[C@@H](O[C@H]3[C@H](O)[C@@H](O)[C@H](O)O[C@@H]3CO)O[C@@H]2CO)[C@H](O)[C@@H](O)[C@@H]1N[C@H]1C=C(CO)[C@@H](O)[C@H](O)[C@H]1O , what activity change, negative = inhibition is on record?
Output: inactive
